Entry source: patent US4920118A

biological target: 5-HT1A recognition sites (Rattus norvegicus); construct: male normotensive Sprague-Dawley rat frontal cortex was dissected, frozen in liquid nitrogen; from tissue; host or cells: frontal cortex of male normotensive Sprague-Dawley rats, washed homogenate; assay: 5-HT1A radioligand binding, rat frontal cortex homogenate
Sequence (P19327 whole entry): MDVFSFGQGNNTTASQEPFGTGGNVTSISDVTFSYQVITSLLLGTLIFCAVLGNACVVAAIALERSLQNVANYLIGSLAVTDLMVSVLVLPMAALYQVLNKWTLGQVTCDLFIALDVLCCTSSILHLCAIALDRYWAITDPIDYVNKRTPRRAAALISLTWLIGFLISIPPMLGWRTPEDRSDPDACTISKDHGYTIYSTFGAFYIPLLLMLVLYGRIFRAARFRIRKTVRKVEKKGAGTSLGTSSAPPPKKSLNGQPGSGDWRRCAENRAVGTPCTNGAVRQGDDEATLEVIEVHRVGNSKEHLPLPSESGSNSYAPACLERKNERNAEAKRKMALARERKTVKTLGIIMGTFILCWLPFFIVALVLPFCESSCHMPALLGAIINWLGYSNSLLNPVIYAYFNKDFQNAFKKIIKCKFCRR
measurement_name: IC50 (nM)

1. O=C1c2ccccc2S(=O)(=O)N1CCCCN1CCc2c([nH]c3ccccc23)C1 [Example II]    6.92

###

biological target: 5-HT1A recognition sites (Rattus norvegicus); construct: male normotensive Sprague-Dawley rat frontal cortex was dissected, frozen in liquid nitrogen; from tissue; host or cells: frontal cortex of male normotensive Sprague-Dawley rats, washed homogenate; experiment: 5-HT1A radioligand binding, rat frontal cortex homogenate; conditions: 5-HT1A binding potency relative to buspirone
// values below are reported Fold Increase (antilog of the difference of the test compound compared to buspirone)
measurement_name: Fold Increase (antilog of the difference of the test compound compared to buspirone)

1. O=C1c2ccccc2S(=O)(=O)N1CCCCN1CCc2c([nH]c3ccccc23)C1 [Example II]    4.4
2. O=C1c2ccccc2S(=O)(=O)N1CCCCNCC1COc2ccccc2N1 (stereo not shown) [Example V]    3.2
3. O=C1c2ccccc2S(=O)(=O)N1CCCCNCC1COc2ccccc2O1 (stereo not shown) [Example I]    66
4. COc1cccc2c1CC(NCCCCN1C(=O)c3ccccc3S1(=O)=O)CC2 (stereo not shown) [Example III]    10
